Format: in vivo, Balb/c nude mice harboring LoVo xenografts
condition.description: Balb/c nude, mouse, plasma, ip, 10 mL/kg
observed.property: Tmax

Task: Need Tmax, item CC(C)=CCC[C@](C)(O[C@@H]1O[C@H](CO[C@@H]2O[C@H](CO)[C@@H](O)[C@H](O)[C@H]2O)[C@@H](O)[C@H](O)[C@H]1O)[C@H]1CC[C@]2(C)[C@@H]1[C@H](O)C[C@@H]1[C@@]3(C)CC[C@H](O[C@@H]4O[C@H](CO)[C@@H](O)[C@H](O)[C@H]4O[C@@H]4O[C@H](CO)[C@@H](O)[C@H](O)[C@H]4O)C(C)(C)[C@@H]3CC[C@]12C [Rb1, ginsenoside Rb1]
Result: 1 h

Task: Need Tmax, item CC(C)=CCC[C@](C)(O[C@@H]1O[C@H](CO)[C@@H](O)[C@H](O)[C@H]1O)[C@H]1CC[C@]2(C)[C@@H]1[C@H](O)C[C@@H]1[C@@]3(C)CC[C@H](O[C@@H]4O[C@H](CO)[C@@H](O)[C@H](O)[C@H]4O[C@@H]4O[C@H](CO)[C@@H](O)[C@H](O)[C@H]4O)C(C)(C)[C@@H]3CC[C@]12C [Rd, ginsenoside Rd]
Result: 4 h

Task: Need Tmax, item CC(C)=CCC[C@](C)(O[C@@H]1O[C@H](CO)[C@@H](O)[C@H](O)[C@H]1O)[C@H]1CC[C@]2(C)[C@@H]1[C@H](O)C[C@@H]1[C@@]3(C)CC[C@H](O)C(C)(C)[C@@H]3[C@@H](O[C@@H]3O[C@H](CO)[C@@H](O)[C@H](O)[C@H]3O)C[C@]12C [Rg1]
Result: 0.167 h

Task: Need Tmax, item CC(C)=CCC[C@](C)(O[C@@H]1O[C@H](CO)[C@@H](O)[C@H](O)[C@H]1O)[C@H]1CC[C@]2(C)[C@@H]1[C@H](O)C[C@@H]1[C@@]3(C)CC[C@H](O)C(C)(C)[C@@H]3[C@@H](O[C@@H]3O[C@H](CO)[C@@H](O)[C@H](O)[C@H]3O[C@@H]3O[C@@H](C)[C@H](O)[C@@H](O)[C@H]3O)C[C@]12C [Re]
Result: 0.167 h

Task: Need Tmax, item CC(C)=CCC[C@](C)(O[C@@H]1O[C@H](CO[C@@H]2O[C@@H](CO)[C@H](O)[C@H]2O)[C@@H](O)[C@H](O)[C@H]1O)[C@H]1CC[C@]2(C)[C@@H]1[C@H](O)C[C@@H]1[C@@]3(C)CC[C@H](O[C@@H]4O[C@H](CO)[C@@H](O)[C@H](O)[C@H]4O[C@@H]4O[C@H](CO)[C@@H](O)[C@H](O)[C@H]4O)C(C)(C)[C@@H]3CC[C@]12C [Rc]
Result: 4 h

Recorded values, source paper PMC7564034.
